Tested on: PC-3 PIP/flu tumor-bearing mice
Assay: Biodistribution study in PC-3 PIP/flu tumor-bearing mice
Type: in vivo, athymic nude Balb/c mice
Details: 4 h p.i., PC-3 PIP/flu tumor-bearing mice
measure.name: Spleen (% IA/g)
Give the number; % IA/g is assumed, so skip it.

See these solved cases before continuing.
molecule | Spleen [% IA/g]
CC(C)Cc1ccc(C(C)C(=O)NCCCCC(NC(=O)CN2CCN(CC(=O)O)CCN(CC(=O)O)CCN(CC(=O)O)CC2)C(=O)NCC2CCC(C(=O)NC(Cc3ccc4ccccc4c3)C(=O)NCCCCC(NC(=O)NC(CCC(=O)O)C(=O)O)C(=O)O)CC2)cc1 (stereo not drawn) [^177Lu-Ibu-PSMA, metal not drawn] | 1.76
CC(C)Cc1ccc(C(C)C(=O)NC(CC(=O)O)C(=O)NCCCCC(NC(=O)CN2CCN(CC(=O)O)CCN(CC(=O)O)CCN(CC(=O)O)CC2)C(=O)NCC2CCC(C(=O)NC(Cc3ccc4ccccc4c3)C(=O)NCCCCC(NC(=O)NC(CCC(=O)O)C(=O)O)C(=O)O)CC2)cc1 (stereo not drawn) [^177Lu-Ibu-Dα-PSMA, metal not drawn] | 0.90

Would you kindly look at the next entry?
Entry CC(C)Cc1ccc(C(C)C(=O)NCC[C@H](NC(=O)CN2CCN(CC(=O)O)CCN(CC(=O)O)CCN(CC(=O)O)CC2)C(=O)NCC2CCC(C(=O)N[C@@H](Cc3ccc4ccccc4c3)C(=O)NCCCC[C@H](NC(=O)N[C@@H](CCC(=O)O)C(=O)O)C(=O)O)CC2)cc1 (stereo partly drawn) [^177Lu-Ibu-sPSMA, metal not drawn] — recorded Spleen = 2.1

---

Bone by entry:
Test system: PC-3 PIP/flu tumor-bearing mice
Assay: Biodistribution study in PC-3 PIP/flu tumor-bearing mice
Format: in vivo, athymic nude Balb/c mice
Details: 24 h p.i., PC-3 PIP/flu tumor-bearing mice
# value in % IA/g; strip the unit string

As a guide, the following entries are already answered.
compound | Bone [% IA/g]
CC(C)Cc1ccc(C(C)C(=O)NCCCCC(NC(=O)CN2CCN(CC(=O)O)CCN(CC(=O)O)CCN(CC(=O)O)CC2)C(=O)NCC2CCC(C(=O)NC(Cc3ccc4ccccc4c3)C(=O)NCCCCC(NC(=O)NC(CCC(=O)O)C(=O)O)C(=O)O)CC2)cc1 (stereo not drawn) [^177Lu-Ibu-PSMA, metal not drawn] | 0.20
CC(C)Cc1ccc(C(C)C(=O)NC(CC(=O)O)C(=O)NCCCCC(NC(=O)CN2CCN(CC(=O)O)CCN(CC(=O)O)CCN(CC(=O)O)CC2)C(=O)NCC2CCC(C(=O)NC(Cc3ccc4ccccc4c3)C(=O)NCCCCC(NC(=O)NC(CCC(=O)O)C(=O)O)C(=O)O)CC2)cc1 (stereo not drawn) [^177Lu-Ibu-Dα-PSMA, metal not drawn] | 0.11
CC(C)Cc1ccc(C(C)C(=O)NC(CCN)C(=O)NCCCCC(NC(=O)CN2CCN(CC(=O)O)CCN(CC(=O)O)CCN(CC(=O)O)CC2)C(=O)NCC2CCC(C(=O)NC(Cc3ccc4ccccc4c3)C(=O)NCCCCC(NC(=O)NC(CCC(=O)O)C(=O)O)C(=O)O)CC2)cc1 (stereo not drawn) [^177Lu-Ibu-DAB-PSMA, metal not drawn] | 0.09
CC(C)Cc1ccc(C(C)C(=O)NC(CC(N)=O)C(=O)NCCCCC(NC(=O)CN2CCN(CC(=O)O)CCN(CC(=O)O)CCN(CC(=O)O)CC2)C(=O)NCC2CCC(C(=O)NC(Cc3ccc4ccccc4c3)C(=O)NCCCCC(NC(=O)NC(CCC(=O)O)C(=O)O)C(=O)O)CC2)cc1 (stereo not drawn) [^177Lu-Ibu-N-PSMA, metal not drawn] | 0.08

Lab book: Bone of CC(C)Cc1ccc(C(C)C(=O)NC(CC(=O)NCCCCC(NC(=O)CN2CCN(CC(=O)O)CCN(CC(=O)O)CCN(CC(=O)O)CC2)C(=O)NCC2CCC(C(=O)NC(Cc3ccc4ccccc4c3)C(=O)NCCCCC(NC(=O)NC(CCC(=O)O)C(=O)O)C(=O)O)CC2)C(=O)O)cc1 (stereo not drawn) [^177Lu-Ibu-Dβ-PSMA, metal not drawn] noted as 0.26

The recorded Bone for entry CC(C)Cc1ccc(C(C)C(=O)NCC[C@H](NC(=O)CN2CCN(CC(=O)O)CCN(CC(=O)O)CCN(CC(=O)O)CC2)C(=O)NCC2CCC(C(=O)N[C@@H](Cc3ccc4ccccc4c3)C(=O)NCCCC[C@H](NC(=O)N[C@@H](CCC(=O)O)C(=O)O)C(=O)O)CC2)cc1 (stereo partly drawn) [^177Lu-Ibu-sPSMA, metal not drawn] equals 0.27
